# Test system: heregulin-mediated tyrosine phosphorylation in MDA-MB-453 cells
# assay_comment: Heregulin-dependent tyrosine phosphorylation assay, MDA-MB-453 cells, western blot
# Format: cell-based
# condition: Homo sapiens, 2 hours compound, 10 ng/mL heregulin 5 minutes, read-out: Heregulin-Medidated Tyrosine Phosphorylation IC50
outcome_measure: IC50 (nM)
Report the value in nM with no unit label.

Request: Field request: IC50 | item: C=CC(=O)Nc1cc2c(Nc3ccc(F)c(Cl)c3)ncnc2cc1OCCCN1CCOCC1
Result: 9
